Cited source for all entries: ChEMBL document CHEMBL4007424

# assay_target: Kappa-type opioid receptor (Homo sapiens, UniProt P41145)
# Sequence (P41145 whole entry): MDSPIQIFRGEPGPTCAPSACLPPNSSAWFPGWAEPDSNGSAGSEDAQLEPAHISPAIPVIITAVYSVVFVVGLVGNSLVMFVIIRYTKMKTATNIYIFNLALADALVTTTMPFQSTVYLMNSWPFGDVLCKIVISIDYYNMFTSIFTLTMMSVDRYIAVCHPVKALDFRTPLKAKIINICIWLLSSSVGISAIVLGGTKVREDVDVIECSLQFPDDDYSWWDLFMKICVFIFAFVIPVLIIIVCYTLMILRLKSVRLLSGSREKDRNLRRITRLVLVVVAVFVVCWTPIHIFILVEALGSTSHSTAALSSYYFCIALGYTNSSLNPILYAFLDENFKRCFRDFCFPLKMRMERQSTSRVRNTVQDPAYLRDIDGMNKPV
# experiment_description: Agonist activity at recombinant human kappa-type opioid receptor expressed in HEK293 cells after 30 mins by [35S]GTPgammaS binding assay
pEC50: −log10 of the molar value.
Kind request: treat 9 as inclusive, so pEC50 at 9 or higher is TRUE, anything lower is FALSE.

Illustrative cases are given below, each with its answer.
>>> assigned_label("COC(=O)N1CCN(C(=O)Cc2ccc(F)c(Cl)c2)[C@@H]2[C@@H](N3CC[C@H](F)C3)CCC[C@@H]21")
"TRUE"
>>> assigned_label("COC(=O)N1CCN(C(=O)Cc2ccc(Cl)cc2)[C@@H]2[C@@H](N3CC[C@H](O)C3)CCC[C@@H]21")
"FALSE"

Q: Please check the record O=C(Cc1ccc(Cl)cc1)N1CCN(S(=O)(=O)Cc2ccon2)[C@H]2CCC[C@H](N3CC[C@H](O)C3)[C@H]21 and state if its pEC50 is at or above 9.
Ans: FALSE

====

Below are log10 of Ki values measured for Mu-type opioid receptor (Cavia porcellus, UniProt P97266).
Remember, log10 of Ki, in nM.

# value of log10 of Ki, Mu-type opioid receptor (Cavia porcellus, UniProt P97266), item CN(C)S(=O)(=O)N1CCN(C(=O)Cc2ccc(Cl)c(Cl)c2)[C@@H]2[C@@H](N3CCCC3)CCC[C@@H]21 = 1.32

# value of log10 of Ki, Mu-type opioid receptor (Cavia porcellus, UniProt P97266), item COC(=O)N1CCN(C(=O)Cc2cccc(Cl)c2)[C@@H]2[C@@H](N3CC[C@H](O)C3)CCC[C@@H]21 = 2.71

# value of log10 of Ki, Mu-type opioid receptor (Cavia porcellus, UniProt P97266), item CS(=O)(=O)N1CCN(C(=O)Cc2ccc(Cl)c(Cl)c2)[C@@H]2[C@@H](N3CCCC3)CCC[C@@H]21 = 1.96

# value of log10 of Ki, Mu-type opioid receptor (Cavia porcellus, UniProt P97266), item CS(=O)(=O)N1CCN(C(=O)Cc2ccc(Cl)c(F)c2)[C@@H]2[C@@H](N3CC[C@H](O)C3)CCC[C@@H]21 = 2.49

# value of log10 of Ki, Mu-type opioid receptor (Cavia porcellus, UniProt P97266), item COC(=O)N1CCN(C(=O)Cc2ccc(F)c(Cl)c2)[C@@H]2[C@@H](N3CC[C@H](O)C3)CCC[C@@H]21 = 3.11

====

# experiment_description: Plasma concentration in Wistar Han rat at 0.3 mg/kg, iv measured 0.25 hrs post compound administration
# Format: ADME, organism-based
property_label: concentration at 0.25 h (ng/mL)
# output: bare number, implied unit ng/mL

Documented concentration at 0.25 h of COC(=O)N1CCN(C(=O)Cc2ccc(Cl)c(Cl)c2)[C@@H]2[C@@H](N3CCCC3)CCC[C@@H]21.Cl : 117

====

# experiment_description: Ratio of drug level in brain to plasma in Wistar Han rat at 5 mg/kg, iv after 1 hr
# Format: ADME, organism-based
# cond: read-out: BPR
Catalogue of Kp at 1 h readings, one per entry.
Give only the figure.

>>> test_value("COC(=O)N1CCN(C(=O)Cc2ccc(C(F)(F)F)c(Cl)c2)[C@@H]2[C@@H](N3CC[C@H](O)C3)CCC[C@@H]21.Cl")
0.17
>>> test_value("CS(=O)(=O)N1CCN(C(=O)Cc2ccc(Cl)c(Cl)c2)[C@@H]2[C@@H](N3CC[C@H](O)C3)CCC[C@@H]21.Cl")
0.02
>>> test_value("CS(=O)(=O)N1CCN(C(=O)Cc2ccc(Cl)c(F)c2)[C@@H]2[C@@H](N3CC[C@H](O)C3)CCC[C@@H]21.Cl")
0.09

Then there is this compound:
Documented Kp at 1 h of COC(=O)N1CCN(C(=O)Cc2ccc(Cl)cc2)[C@@H]2[C@@H](N3CC[C@H](O)C3)CCC[C@@H]21.Cl : 0.19
